molecular target: PLA2G7 (Mus musculus, UniProt Q60963); construct: Proteomes (mouse brain membrane fraction or cell lysates); from tissue; host or cells: mouse brain membrane fraction (or cell lysates, not specified); test: In vitro competitive activity-based protein profiling (gel-based, FP-Rh or HT-01 probe); assay type: biochemical; conditions: 1 μM inhibitor; gel-based competitive ABPP; read-out: % Inhibition at 1 μM, D = PLA2G7
Sequence (Q60963 22-440): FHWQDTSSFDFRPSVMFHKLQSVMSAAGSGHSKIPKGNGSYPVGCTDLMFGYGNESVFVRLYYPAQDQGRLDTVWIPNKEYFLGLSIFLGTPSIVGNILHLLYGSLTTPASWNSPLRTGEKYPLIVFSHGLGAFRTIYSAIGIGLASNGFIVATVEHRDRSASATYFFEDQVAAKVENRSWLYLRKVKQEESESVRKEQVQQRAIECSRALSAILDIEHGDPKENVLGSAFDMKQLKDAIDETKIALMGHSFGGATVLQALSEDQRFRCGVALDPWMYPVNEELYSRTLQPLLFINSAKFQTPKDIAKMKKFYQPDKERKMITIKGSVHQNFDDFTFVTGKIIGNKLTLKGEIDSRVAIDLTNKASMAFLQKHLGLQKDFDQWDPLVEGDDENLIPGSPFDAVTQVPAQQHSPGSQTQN
Recorded inhibition at 1 µM values for a group of compounds are listed next.

// solved cases for inhibition at 1 µM follow
CCN(Cc1cccc(N2CCOCC2)c1)C(=O)n1cc(C(F)(F)F)cn1 ... < 25%
CCN(Cc1ccc(N2CCOCC2)cc1)C(=O)n1cc(C(F)(F)F)cn1 ... < 25%
N#Cc1cnn(C(=O)N2CCCN(Cc3ccc(OCc4ccccc4)cc3)CC2)c1 ... < 25%

query: Look up and report inhibition at 1 µM, with PLA2G7 (Mus musculus, UniProt Q60963) as system, for CCN(Cc1ccc(Cl)cc1)C(=O)n1cc(C)cn1
result: < 25%

query: Look up and report inhibition at 1 µM, with PLA2G7 (Mus musculus, UniProt Q60963) as system, for CCN(Cc1ccc(Cl)cc1)C(=O)n1cc(C#N)cn1
result: < 25%

query: Look up and report inhibition at 1 µM, with PLA2G7 (Mus musculus, UniProt Q60963) as system, for Cc1cccc(CN2CCN(C(=O)n3cc(C(F)(F)F)cn3)CC2)c1
result: > 75%

query: Look up and report inhibition at 1 µM, with PLA2G7 (Mus musculus, UniProt Q60963) as system, for O=C(N1CCN(Cc2ccccc2N2CCCC2)CC1)n1cc(C(F)(F)F)cn1
result: > 75%

query: Look up and report inhibition at 1 µM, with PLA2G7 (Mus musculus, UniProt Q60963) as system, for COc1ccccc1CN1CCN(C(=O)n2cc(C(F)(F)F)cn2)CC1
result: > 75%

query: Look up and report inhibition at 1 µM, with PLA2G7 (Mus musculus, UniProt Q60963) as system, for CNC(=O)c1cnn(C(=O)N2CCN(Cc3cccc(Oc4ccccc4)c3)CC2)c1
result: > 75%

query: Look up and report inhibition at 1 µM, with PLA2G7 (Mus musculus, UniProt Q60963) as system, for O=C(c1cnn(C(=O)N2CCN(Cc3ccc(-c4ccccc4)cc3OCc3ccccc3)CC2)c1)N1CCCC1
result: < 25%

query: Look up and report inhibition at 1 µM, with PLA2G7 (Mus musculus, UniProt Q60963) as system, for CCN(Cc1cccc(OC)c1)C(=O)n1cc(C(F)(F)F)cn1
result: < 25%

query: Look up and report inhibition at 1 µM, with PLA2G7 (Mus musculus, UniProt Q60963) as system, for CCN(Cc1ccc(OC)cc1)C(=O)n1cc(C(F)(F)F)cn1
result: < 25%

query: Look up and report inhibition at 1 µM, with PLA2G7 (Mus musculus, UniProt Q60963) as system, for CCN(Cc1cccc(OC)c1)C(=O)n1cc(C#N)cn1
result: < 25%

====

biological target: FAAH (Mus musculus); construct: Proteomes (mouse brain membrane fraction or cell lysates); from tissue; host or cells: mouse brain membrane fraction (or cell lysates, not specified); experiment: In vitro competitive activity-based protein profiling (gel-based, FP-Rh or HT-01 probe); assay type: biochemical; details: 1 μM inhibitor; read-out: % Inhibition at 1 μM, B = FAAH
Sequence (O08914 whole entry): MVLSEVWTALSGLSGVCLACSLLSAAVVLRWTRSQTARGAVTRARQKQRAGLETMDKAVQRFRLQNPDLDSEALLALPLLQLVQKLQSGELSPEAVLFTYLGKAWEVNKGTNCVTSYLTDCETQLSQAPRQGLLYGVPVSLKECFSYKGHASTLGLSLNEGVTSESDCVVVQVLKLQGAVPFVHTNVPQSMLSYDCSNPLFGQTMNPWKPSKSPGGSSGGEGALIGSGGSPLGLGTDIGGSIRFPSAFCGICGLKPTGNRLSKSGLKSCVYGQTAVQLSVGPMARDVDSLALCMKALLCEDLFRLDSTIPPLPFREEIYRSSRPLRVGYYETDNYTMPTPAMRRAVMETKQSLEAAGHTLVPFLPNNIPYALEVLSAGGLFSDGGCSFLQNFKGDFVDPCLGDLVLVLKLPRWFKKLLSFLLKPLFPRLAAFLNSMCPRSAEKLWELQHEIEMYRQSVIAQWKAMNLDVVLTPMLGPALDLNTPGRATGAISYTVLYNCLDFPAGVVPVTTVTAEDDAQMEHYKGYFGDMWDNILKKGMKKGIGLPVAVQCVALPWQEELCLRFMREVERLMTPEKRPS
reported_property: inhibition at 1 µM

// solved cases for inhibition at 1 µM follow
CCN(Cc1ccccc1OC)C(=O)n1cc(Cl)cn1 ... < 25%
N#Cc1cnn(C(=O)N2CCN(Cc3ccc(Oc4ccccc4)cc3)CC2)c1 ... > 75%
CC(C)c1cnn(C(=O)N2CCN(C(c3ccc(Cl)cc3)c3ccc(Cl)cc3)CC2)c1 ... < 25%
CN(CCN(C)C(=O)n1cc(C(F)(F)F)cn1)C(=O)c1ccccc1 ... > 75%
O=C(N1CCN(Cc2ccccc2)CC1)n1cc(Cl)cn1 ... > 75%
CC(=O)N1CCCN(C(=O)n2cc(C#N)cn2)CC1 ... < 25%

query: Check the records and state inhibition at 1 µM for N#Cc1cnn(C(=O)N2CCCN(C(=O)c3ccccc3)CC2)c1
result: > 75%

query: Check the records and state inhibition at 1 µM for Cc1cnn(C(=O)N2CCN(Cc3ccc4ccccc4c3)CC2)c1
result: < 25%

query: Check the records and state inhibition at 1 µM for COC(=O)c1cnn(C(=O)N2CCN(Cc3ccc4ccccc4c3)CC2)c1
result: > 75%

Origin of the recorded values: patent US10093630B2
